B1: CLPTM1 (parent)
chain: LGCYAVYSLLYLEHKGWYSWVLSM

Variants of: B1
Assay: protein stability index of a GFP-peptide fusion (GPS, HEK-293T) (PSI 1-6); higher = more stable;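 further: lentivirally expressed fusions sorted by FACS into six bins by GFP to DsRed ratio, PSI derived from sequencing read proportions per bin multiplied by bin number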
Conditions: c terminus: a fixed tail appended
RECORDED METRIC: protein stability index
Give the value as a plain number.

Fill in reported protein stability index for this entry: LGCYKVYSLLYLEHKGWYSWVLSM 2.91

// Input: LGCYAVYSLLYLEHKGWYSLVLSM . Output its protein stability index only. 2.91

Fill in protein stability index for record LGCYAVYSMLYLEHKGWYSWVLSM 2.92

Using the record for LGCYAVYSLLYLEHKGWWSWVLSM , state its measured protein stability index. 3.03

Return protein stability index (reported value) for this variant: LGCYAVYSLLYLEHKGWYSWNLSM 3.02

Supply reported protein stability index belonging to this variant: CGCYAVYSLLYLEHKGWYSWVLSM 2.92

Specify reported protein stability index for the variant shown: LGCRAVYSLLYLEHKGWYSWVLSM 2.91

Tell me its protein stability index given LGCYAVYSLLYLEHKGLYSWVLSM as the entry. 2.96

Fill in protein stability index for record RGCYAVYSLLYLEHKGWYSWVLSM 3.05
